Target: GDP-bound KRAS protein (aa 1-169), containing both G12C and C118A amino acid substitutions (Homo sapiens (Human), UniProt P01116, C118A/G12C)
Sequence (P01116 other isoform, or with tags, fused parts or gaps G12C/C118A): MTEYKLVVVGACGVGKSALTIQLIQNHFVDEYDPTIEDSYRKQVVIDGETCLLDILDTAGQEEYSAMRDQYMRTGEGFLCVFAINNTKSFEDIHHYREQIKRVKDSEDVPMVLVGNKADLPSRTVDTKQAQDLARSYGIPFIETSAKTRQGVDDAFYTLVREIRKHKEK
Experiment: Coupled nucleotide exchange assay (SOS-mediated nucleotide exchange, AlphaScreen)
Type: biochemical
Conditions: read-out: Coupled exchange IC50 (5 min; μM); 5 min compound pre-incubation
Classify: TRUE when IC50 is strictly less than 0.5 µM; FALSE when IC50 is not.

Qu. Strictly below 0.5 µM: is that where IC50 of C=CC(=O)N1C[C@H](C)N(c2nc(=O)n(-c3c(CC)ncnc3C(C)C)c3nc(-c4ccccc4F)c(Cl)cc23)C[C@H]1C (single isomer, unassigned) [Example 109-1-2] sits?
Ans. TRUE

Qu. And for C=CC(=O)N1C[C@H](C)N(c2nc(=O)n(-c3c(C)ccnc3C(C)C)c3nc(-c4cc(OC)ccc4Cl)c(F)cc23)C[C@H]1C (atropisomer, axis not shown; (M)) ?
Ans. TRUE

Qu. // same read-out, input: C#Cc1ccccc1-c1nc2c(cc1Cl)c(N1C[C@@H](C)N(C(=O)C=C)C[C@@H]1C)nc(=O)n2-c1c(C)ccnc1C(C)C (atropisomer, axis not shown; (M))
Ans. TRUE

Qu. Can you handle C=CC(=O)N1[C@H](C)CN(c2nc(=O)n(-c3c(C)ccnc3C(C)C)c3nc(-c4ccccc4F)c(Cl)nc23)C[C@@H]1C (single isomer, unassigned) [Example 224-1] next?
Ans. FALSE

Qu. What do you get for C=CC(=O)N1C[C@H](C)N(c2nc(=O)n(-c3c(C)ccnc3C(C)C)c3nc(-c4ccccc4NC(C)=O)c(Cl)cc23)C[C@H]1C (atropisomer, axis not shown; (M)) ?
Ans. TRUE

Qu. Check C=CC(=O)N1C[C@H](C)N(c2nc(=O)n(-c3c(C)ccnc3C(C)C)c3nc(-c4ccccc4C(F)(F)F)c(Cl)cc23)C[C@H]1C (atropisomer, axis not shown; (M)) too.
Ans. TRUE

Qu. Do the same for C=CC(=O)N1C[C@H](C)N(c2nc(=O)n(-c3c(C)ccnc3C(C)C)c3nc(-c4cccc5cc[nH]c45)c(Cl)cc23)C[C@H]1C (atropisomer, axis not shown; (M)) please
Ans. TRUE

Qu. Consider next the compound C=CC(=O)N1C[C@H](C)N(c2nc(=O)n(-c3c(C)ccnc3C(C)C)c3nc(-c4ccccc4C(=O)NC)c(F)cc23)C[C@H]1C (atropisomer, axis not shown; (M)) in the same way.
Ans. FALSE

Qu. # iterate: C=CC(=O)N1C[C@@H](C)N(c2nc(=O)n(-c3c(C)ccnc3C(C)C)c3nc(-c4ccccc4F)c(Cl)nc23)[C@@H](C)C1 [Example 106-7-1]
Ans. FALSE

Qu. And "C=CC(=O)N1C[C@H](C)N(c2nc(=O)n(-c3c(C)ccnc3C(C)C)c3nc(-c4cccc(F)c4NC(C)=O)c(Cl)cc23)C[C@H]1C" ?
Ans. TRUE

Qu. Now this one: C=CC(=O)N1CCN(c2nc(=O)n(-c3c(C)ccnc3C(C)C)c3nc(-c4c(O)cccc4F)c(F)cc23)C(C)C1C (single isomer, unassigned) [Example 124-16-1]
Ans. FALSE

Qu. Also C=CC(=O)N1C[C@H](C)N(c2nc(=O)n(-c3c(C(C)C)cccc3S(C)(=O)=O)c3nc(-c4ccccc4F)c(Cl)cc23)C[C@H]1C (single isomer, unassigned) [Example 208-1] , if possible.
Ans. FALSE

Qu. Also C=CC(=O)N1C[C@H](C)N(c2nc(=O)n(-c3c(CC)ncnc3C(C)C)c3nc(-c4ccccc4F)c(Cl)cc23)C[C@H]1C [Example 109-1] ?
Ans. TRUE

Qu. And then "C=CC(=O)N1C[C@H](C)N(c2nc(=O)n(-c3c(C)cc(S(C)(=O)=O)cc3C(C)C)c3nc(-c4ccccc4F)c(Cl)cc23)C[C@H]1C" , what is it?
Ans. TRUE

Qu. Now try C=CC(=O)N1C[C@H](C)N(c2nc(=O)n(-c3c(C)ccnc3C(C)C)c3nc(C4CCC4)c(Cl)cc23)C[C@H]1C (atropisomer, axis not shown; (M)) .
Ans. TRUE

Qu. Also "C=CC(=O)N1C[C@H](C)N(c2nc(=O)n(-c3c(C(C)C)nc(N4CCOCC4)nc3C(C)C)c3nc(-c4ccccc4F)c(Cl)cc23)C[C@H]1C" , if possible.
Ans. TRUE

Qu. Likewise for C=CC(=O)N1C[C@H](C)N(c2nc(=O)n(-c3c(C)ccnc3C(C)C)c3nc(CCC)c(Cl)cc23)C[C@H]1C (atropisomer, axis not shown; (M)) ?
Ans. FALSE

Qu. Try this compound next: C=CC(=O)N1CCN(c2nc(=O)n(-c3c(C)ccnc3C(C)C)c3nc(Cl)c(Cl)cc23)CC1CC#N (atropisomer, axis not shown; (M)) [Example 144-2]
Ans. FALSE

Qu. Quick one: C=CC(=O)N1C[C@H](C)N(c2nc(=O)n(-c3c(C)ccnc3C(C)C)c3nc(-c4cc(OC(F)(F)F)ccc4F)c(Cl)cc23)C[C@H]1C (atropisomer, axis not shown; (M))
Ans. TRUE

Qu. Now give it for C=CC(=O)N1C[C@H](C)N(c2nc(=O)n(-c3c(C)ccnc3C(C)C)c3nc(-c4ccccc4C(=O)N(C)C)c(Cl)cc23)C[C@H]1C (atropisomer, axis not shown; (M)) too.
Ans. TRUE

Origin of values: patent US11285156B2
